Test: A549 lung cancer cell viability effects, profiling panel, resazurin fluorescence, 24 h, PK04 Diversity Set (AID 1171); also: test concentration not given here
Details: higher = more signal, called active from +8 up or from −8 down
Answer Criterion not met if z-score is under -0.2, and Criterion met if it is -0.2 or more.

Here are 3 compounds together with their reported answers.
Compound | Class name
CC(C)c1ccc(NN2C(C(O)c3ccc(B(O)O)cc3)C=CC3C(=O)N(c4ccccc4)C(=O)C32)cc1 (centres undefined) | Criterion not met
C=CCOC(=O)[C@H]1[C@@H]2C(=O)O[C@@H](c3ccccc3)[C@@H](c3ccccc3)N2[C@@H](c2ccc(OCCOC(=O)[C@H]3C[C@H]4C(=O)N[C@@H](CCCCNC(C)=O)C(=O)N4[C@H]3c3cccc(OCCO)c3)cc2)[C@]12C(=O)Nc1ccccc12 | Criterion met
CCCC[C@H]1OB(O)C[C@H]2C1=C(COC)C[C@H]1C(=O)N(C)C(=O)[C@H]12 | Criterion not met

Q: Does O=C1NC(=O)C2C1C=CC(C(O)c1cccs1)N2Nc1ccc(Cl)cc1Cl (centres undefined) have a reported z-score of at least -0.2?
Ans: Criterion not met

Q: Does COc1cc2c(cc1OC)CN(C(=O)[C@@H]1[C@H]3C(=O)O[C@H](c4ccccc4)[C@H](c4ccccc4)N3[C@H](c3ccccc3OCCO)[C@@]13C(=O)Nc1ccc(C#CCCO)cc13)CC2 have a reported z-score of at least -0.2?
Ans: Criterion met

Q: Does C=C(COC)C(=O)CC[C@@H](OC(C)=O)c1ccc(CO)o1 have a reported z-score of at least -0.2?
Ans: Criterion met

Q: Does C=C[C@H](CO)NS(=O)(=O)c1ccc(Br)cc1 have a reported z-score of at least -0.2?
Ans: Criterion met

Q: Does OCCCC1=CC(c2cccs2)N(Cc2cc3c(cc2Br)OCO3)CC1 (centres undefined) have a reported z-score of at least -0.2?
Ans: Criterion met

Q: Does COc1cccc(-c2cccc(=O)o2)c1 have a reported z-score of at least -0.2?
Ans: Criterion met

----------
Below, each of the compounds is paired with its reported composite z-score value.
Target: Epidermal growth factor receptor (Homo sapiens) (UniProt P00533)
Sequence (P00533 whole entry, looked up): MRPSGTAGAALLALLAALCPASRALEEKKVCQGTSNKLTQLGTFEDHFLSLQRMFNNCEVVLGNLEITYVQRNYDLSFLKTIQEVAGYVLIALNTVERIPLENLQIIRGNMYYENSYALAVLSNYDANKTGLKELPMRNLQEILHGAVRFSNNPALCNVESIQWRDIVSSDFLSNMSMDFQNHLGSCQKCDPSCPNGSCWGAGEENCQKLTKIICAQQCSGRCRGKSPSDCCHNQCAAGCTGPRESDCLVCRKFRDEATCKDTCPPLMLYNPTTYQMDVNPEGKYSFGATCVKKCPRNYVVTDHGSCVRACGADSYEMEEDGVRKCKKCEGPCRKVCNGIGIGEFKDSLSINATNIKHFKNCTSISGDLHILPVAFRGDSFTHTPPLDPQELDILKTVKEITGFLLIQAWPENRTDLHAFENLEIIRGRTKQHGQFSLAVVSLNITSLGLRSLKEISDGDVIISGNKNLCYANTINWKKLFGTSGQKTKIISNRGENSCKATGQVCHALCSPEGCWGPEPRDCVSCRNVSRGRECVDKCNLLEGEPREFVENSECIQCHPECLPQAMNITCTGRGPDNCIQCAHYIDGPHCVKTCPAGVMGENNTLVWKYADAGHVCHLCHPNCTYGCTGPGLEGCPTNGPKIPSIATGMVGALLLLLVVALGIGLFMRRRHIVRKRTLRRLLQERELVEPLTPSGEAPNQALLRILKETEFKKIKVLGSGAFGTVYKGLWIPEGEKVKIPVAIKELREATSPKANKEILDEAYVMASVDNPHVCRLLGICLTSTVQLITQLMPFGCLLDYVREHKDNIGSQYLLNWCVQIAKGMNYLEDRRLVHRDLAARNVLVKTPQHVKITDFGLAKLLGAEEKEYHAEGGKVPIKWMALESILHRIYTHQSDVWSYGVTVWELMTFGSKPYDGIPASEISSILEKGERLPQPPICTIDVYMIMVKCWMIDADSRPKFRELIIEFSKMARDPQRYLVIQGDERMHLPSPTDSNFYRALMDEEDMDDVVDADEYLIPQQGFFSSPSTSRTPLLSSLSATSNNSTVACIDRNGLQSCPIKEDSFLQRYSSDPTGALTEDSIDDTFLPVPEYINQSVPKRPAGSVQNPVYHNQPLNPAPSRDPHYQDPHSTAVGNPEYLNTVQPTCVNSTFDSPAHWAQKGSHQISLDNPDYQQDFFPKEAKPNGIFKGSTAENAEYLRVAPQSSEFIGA
Test: EGFR binders on small-molecule microarrays, primary screen, biochemical, small-molecule microarray, 635 nm fluorescence (AID 1104);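 also: score merges 667 nm emission intensity with spot signal to noise over triplicate slides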
Conditions: EGFR binding, higher = more signal
Number only, no unit.

Use the examples below as a reference point.
Compound | composite z-score
C=CCN1C(=O)[C@@]2(CC=C)N=C(c3ccc(OCCCO)cc3)O[C@H]2c2ccccc21 | 0.734
O=C1O[C@@H](c2ccccc2)[C@@H](c2ccccc2)N2[C@@H](c3ccccc3OCCO)[C@]3(C(=O)Nc4ccccc43)[C@@H](C(=O)Nc3nc4ccccc4s3)[C@H]12 | 0.383

Q: Note composite z-score for the compound shown: O=C1O[C@H](c2ccccc2)[C@H](c2ccccc2)N2[C@H]1[C@@H](C(=O)N1CCCCCCC1)[C@]1(C(=O)Nc3ccc(C#CC4=CCCCC4)cc31)[C@H]2c1ccc(OCCO)cc1
Ans: 1.68

Q: Note composite z-score for the compound shown: C=C(COC)/C(=C/C[C@H](OC(C)=O)c1ccc(CO)o1)c1cc(C(=O)OC)ccc1OC
Ans: -0.173

Q: Note composite z-score for the compound shown: N#Cc1ccc(NN2C(C(O)C(c3ccccc3)c3ccccc3)C=CC3C(=O)N(c4ccccc4)C(=O)C32)cc1 (centres undefined)
Ans: -0.0158

Q: Note composite z-score for the compound shown: COC(=O)C(CC#Cc1ccc2c(c1)[C@]1(C(=O)N2)[C@H](c2ccc(OCCO)cc2)N2[C@H](c3ccccc3)[C@H](c3ccccc3)OC(=O)[C@H]2[C@@H]1C(=O)Nc1nc2ccccc2s1)C(=O)OC
Ans: 0.313

Q: Note composite z-score for the compound shown: CCOC(=O)C1=C[C@@H](C(C)(C)C)N(S(=O)(=O)c2ccc(C)cc2)[C@H]1c1ccc(F)cc1
Ans: 0.395
